- MEASURED ON: Ybr033w (UniProt P38073)
- Sequence: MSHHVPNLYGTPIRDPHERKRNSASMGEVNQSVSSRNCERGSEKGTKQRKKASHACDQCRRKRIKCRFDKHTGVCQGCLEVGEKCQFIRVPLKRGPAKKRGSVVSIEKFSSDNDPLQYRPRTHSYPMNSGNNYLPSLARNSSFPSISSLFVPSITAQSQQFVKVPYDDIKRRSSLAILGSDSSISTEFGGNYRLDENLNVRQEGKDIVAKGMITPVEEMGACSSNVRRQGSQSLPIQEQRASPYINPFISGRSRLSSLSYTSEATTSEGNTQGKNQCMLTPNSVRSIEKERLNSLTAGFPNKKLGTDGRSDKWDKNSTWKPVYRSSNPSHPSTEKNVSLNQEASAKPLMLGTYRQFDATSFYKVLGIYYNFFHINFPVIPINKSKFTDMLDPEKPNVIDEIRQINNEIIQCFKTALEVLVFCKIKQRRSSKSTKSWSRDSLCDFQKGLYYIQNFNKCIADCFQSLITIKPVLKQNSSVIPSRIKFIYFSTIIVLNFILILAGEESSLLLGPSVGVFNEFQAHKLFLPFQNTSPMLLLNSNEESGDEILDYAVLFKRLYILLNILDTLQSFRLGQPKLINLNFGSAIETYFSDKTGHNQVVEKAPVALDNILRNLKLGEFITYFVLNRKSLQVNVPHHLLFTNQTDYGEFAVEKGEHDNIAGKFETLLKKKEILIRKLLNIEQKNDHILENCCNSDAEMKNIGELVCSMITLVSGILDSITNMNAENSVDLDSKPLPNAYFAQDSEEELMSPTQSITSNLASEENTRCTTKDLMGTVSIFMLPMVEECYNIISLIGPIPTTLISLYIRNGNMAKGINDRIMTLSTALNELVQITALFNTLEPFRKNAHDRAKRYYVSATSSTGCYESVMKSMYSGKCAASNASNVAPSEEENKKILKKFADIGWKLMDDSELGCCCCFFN
- EXPERIMENTAL DETAILS: PBM E-score (8-mer binding enrichment) (E-score (-0.5 to 0.5)); higher = stronger / more preferred TF binding
- CONDITIONS: protein concentration: 200 nM; construct: GST-full length
Whole data set: some 33,000 sequences, median “E-score (-0.5 to 0.5)” near -0.012, cut for the highest 2% near 0.29. Shown is part of a subset that was picked to be rich in the highest values.
satisfied means recorded PBM E-score is 0.04 or above; not satisfied means it is below 0.04.

chain_sequence=GCGGATGA class_label=satisfied

-- ask Answer whether PBM E-score of GACTCTAC is greater than or equal to 0.04.
-- reply not satisfied

Ref: the supplement of paper PMC3334620
